- Tested on: HL-1
- PROTOCOL: relative cell viability (CellTiter-Glo) vs DMSO control (% of DMSO control); higher = more viable cells
- CONDITIONS: oxygen condition: hypoxia 48 h (1% O2) + reoxygenation 24 h; 5000 nM
Structures can show the parent of a compound that is named as a salt.
Mark TRUE for relative cell viability under 100, FALSE if at or over.

{"MOLECULE": "CNS(=O)(=O)Cc1ccc2[nH]cc(CCN(C)C)c2c1 [Sumatriptan succinate]", "TARGET SYSTEM": "HL-1", "CAT": "FALSE"}
{"MOLECULE": "Nc1[nH]cnc2ncnc1-2 [Adenine]", "TARGET SYSTEM": "HL-1", "CAT": "FALSE"}
{"MOLECULE": "CN(C)C(=N)NC(=N)N [Metformin hydrochloride]", "TARGET SYSTEM": "HL-1", "CAT": "FALSE"}
{"MOLECULE": "CC(C)c1c(C(=O)Nc2ccccc2)c(-c2ccccc2)c(-c2ccc(F)cc2)n1CC[C@@H](O)C[C@@H](O)CC(=O)O [Atorvastatin calcium]", "TARGET SYSTEM": "HL-1", "CAT": "TRUE"}
{"MOLECULE": "COc1ccc(C[C@@H]2c3cc(OC)c(OC)cc3CC[N@+]2(C)CCC(=O)OCCCCCOC(=O)CC[N@@+]2(C)CCc3cc(OC)c(OC)cc3[C@H]2Cc2ccc(OC)c(OC)c2)cc1OC [Cisatracurium besylate]", "TARGET SYSTEM": "HL-1", "CAT": "FALSE"}
{"MOLECULE": "CC[C@@H](CO)NCCN[C@@H](CC)CO [Ethambutol HCl]", "TARGET SYSTEM": "HL-1", "CAT": "FALSE"}
{"MOLECULE": "NS(=O)(=O)c1cc2c(cc1Cl)NCNS2(=O)=O [Hydrochlorothiazide]", "TARGET SYSTEM": "HL-1", "CAT": "FALSE"}
{"MOLECULE": "Nc1nc(CC(=O)Nc2ccc(CCNC[C@H](O)c3ccccc3)cc2)cs1 [Mirabegron]", "TARGET SYSTEM": "HL-1", "CAT": "FALSE"}
{"MOLECULE": "CCOc1nc2cccc(C(=O)OCc3oc(=O)oc3C)c2n1Cc1ccc(-c2ccccc2-c2noc(=O)[nH]2)cc1 [Azilsartan Medoxomil]", "TARGET SYSTEM": "HL-1", "CAT": "FALSE"}
{"MOLECULE": "CCCCNc1cc(C(=O)O)cc(S(N)(=O)=O)c1Oc1ccccc1 [Bumetanide]", "TARGET SYSTEM": "HL-1", "CAT": "FALSE"}
{"MOLECULE": "OC[C@@H](O)[C@@H](O)[C@H](O)[C@H](O)CO [D-Mannitol]", "TARGET SYSTEM": "HL-1", "CAT": "FALSE"}
{"MOLECULE": "CCCC(CCC)C(=O)O [Divalproex sodium]", "TARGET SYSTEM": "HL-1", "CAT": "FALSE"}
{"MOLECULE": "CC[C@]1(O)C[C@H]2CN(CCc3c([nH]c4ccccc34)[C@@](C(=O)OC)(c3cc4c(cc3OC)N(C=O)[C@H]3[C@@](O)(C(=O)OC)[C@H](OC(C)=O)[C@]5(CC)C=CCN6CC[C@]43[C@@H]65)C2)C1 [Vincristine]", "TARGET SYSTEM": "HL-1", "CAT": "TRUE"}
{"MOLECULE": "COc1ccc2c(c1)C(=O)N(CCc1ccc(S(=O)(=O)NC(=O)NC3CCCCC3)cc1)C(=O)C2(C)C [Gliquidone]", "TARGET SYSTEM": "HL-1", "CAT": "FALSE"}
{"MOLECULE": "N=C(N)NC(=N)NCCc1ccccc1 [Phenformin hydrochloride]", "TARGET SYSTEM": "HL-1", "CAT": "TRUE"}

====

- Test system: HL-1
- PROTOCOL: relative cell viability (CellTiter-Glo) vs DMSO control (% of DMSO control); higher = more viable cells
- CONDITIONS: oxygen condition: hypoxia 48 h (1% O2) + reoxygenation 24 h; 1000 nM
Where a name gives a salt, the structure may show the parent alone.
READOUT NAME: relative cell viability

{"MOLECULE": "CC(=O)O[C@H]1CC[C@@]2(C)C(=CC[C@@H]3[C@@H]2CC[C@]2(C)C(c4cccnc4)=CC[C@@H]32)C1 [Abiraterone Acetate]", "VALUE OBSERVED": 101}
{"MOLECULE": "CCN(CCCc1ccccc1)CCCc1ccccc1 [Alverine Citrate]", "VALUE OBSERVED": 102}
{"MOLECULE": "Cc1cn(-c2cc(NC(=O)c3ccc(C)c(Nc4nccc(-c5cccnc5)n4)c3)cc(C(F)(F)F)c2)cn1 [Nilotinib]", "VALUE OBSERVED": 107}
{"MOLECULE": "CC(=O)OCC[N+](C)(C)C [Acetylcholine chloride]", "VALUE OBSERVED": 101}
{"MOLECULE": "COc1nc(C)nc(Cl)c1NC1=NCCN1 [Moxonidine]", "VALUE OBSERVED": 99.6}
{"MOLECULE": "Cn1c(=O)c2c(ncn2CC2OCCO2)n(C)c1=O [Doxofylline]", "VALUE OBSERVED": 122}
{"MOLECULE": "CC[C@H](C)C(=O)O[C@H]1CCC=C2C=C[C@H](C)[C@H](CC[C@@H]3C[C@@H](O)CC(=O)O3)[C@H]21 [Mevastatin]", "VALUE OBSERVED": 99.3}
{"MOLECULE": "O=C(c1cc(Cc2n[nH]c(=O)c3ccccc23)ccc1F)N1CCN(C(=O)C2CC2)CC1 [Olaparib]", "VALUE OBSERVED": 76.2}
{"MOLECULE": "O=C1O[C@H]([C@@H](O)CO)C([O-])=C1O.[Na+] [Sodium ascorbate]", "VALUE OBSERVED": 106}
{"MOLECULE": "NC(=O)c1ncn([C@@H]2O[C@H](CO)[C@@H](O)[C@H]2O)c1O [Mizoribine]", "VALUE OBSERVED": 115}
{"MOLECULE": "N=C(N)NC(=N)N1CCOCC1 [Moroxydine]", "VALUE OBSERVED": 103}
{"MOLECULE": "CCCNC(C)C(=O)Nc1ccccc1C (stereo not drawn) [Prilocaine]", "VALUE OBSERVED": 105}
{"MOLECULE": "CCN(Cc1ccncc1)C(=O)C(CO)c1ccccc1 (stereo not drawn) [Tropicamide]", "VALUE OBSERVED": 101}
{"MOLECULE": "CCN(CC)C(=O)/C(C#N)=C/c1cc(O)c(O)c([N+](=O)[O-])c1 [Entacapone]", "VALUE OBSERVED": 103}
{"MOLECULE": "Cc1nc2c([nH]1)-c1ccccc1N(C(=O)c1ccc(NC(=O)c3ccccc3-c3ccccc3)cc1)CC2 [Conivaptan HCl]", "VALUE OBSERVED": 46.4}
{"MOLECULE": "COc1c2ccoc2cc2oc(=O)ccc12 [Bergapten]", "VALUE OBSERVED": 107}
{"MOLECULE": "Cc1ccc(S(=O)(=O)NC(=O)NN2CCCCCC2)cc1 [Tolazamide]", "VALUE OBSERVED": 98.3}
{"MOLECULE": "CO[C@H]1C[C@@H]2CC[C@@H](C)[C@@](O)(O2)C(=O)C(=O)N2CCCC[C@H]2C(=O)O[C@H]([C@H](C)C[C@@H]2CC[C@@H](OCCO)[C@H](OC)C2)CC(=O)[C@H](C)/C=C(\\C)[C@@H](O)[C@@H](OC)C(=O)[C@H](C)C[C@H](C)/C=C/C=C/C=C/1C [Everolimus]", "VALUE OBSERVED": 73.9}

====

- System: HL-1
- PROTOCOL: relative cell viability (CellTiter-Glo) vs DMSO control (% of DMSO control); higher = more viable cells
- CONDITIONS: oxygen condition: hypoxia 48 h (1% O2) + reoxygenation 24 h; 200 nM
Where a name gives a salt, the structure may show the parent alone.

{"COMPOUND": "O=C(c1cc(Cc2n[nH]c(=O)c3ccccc23)ccc1F)N1CCN(C(=O)C2CC2)CC1", "relative cell viability": 84.4}
{"COMPOUND": "CCCCNC(=O)NS(=O)(=O)c1ccc(C)cc1 [Tolbutamide]", "relative cell viability": 99.7}
{"COMPOUND": "CC(C)[C@H](N)C(=O)OCC(CO)OCn1cnc2c(=O)nc(N)[nH]c21 (some centres undefined) [valganciclovir hydrochloride]", "relative cell viability": 107}
{"COMPOUND": "OCC(CO)N[C@H]1C[C@](O)(CO)[C@@H](O)[C@H](O)[C@H]1O", "relative cell viability": 117}
{"COMPOUND": "CN1CCC(=C2c3ccccc3CC(=O)c3sccc32)CC1 [Ketotifen fumarate]", "relative cell viability": 103}
{"COMPOUND": "Cc1cc2c(cc1S(N)(=O)=O)S(=O)(=O)CCC2", "relative cell viability": 101}
{"COMPOUND": "COc1ccc2[nH]c([S@@+]([O-])Cc3ncc(C)c(OC)c3C)nc2c1 [Esomeprazole sodium]", "relative cell viability": 93.2}
{"COMPOUND": "CC1=C(C(=O)OC(C)C)C(c2cccc([N+](=O)[O-])c2)C(C(=O)OC2CN(C(c3ccccc3)c3ccccc3)C2)=C(N)N1 (centres undefined)", "relative cell viability": 110}
{"COMPOUND": "CN1CCC[C@H]1c1cccnc1 [Nicotine Ditartrate]", "relative cell viability": 99.9}
{"COMPOUND": "CC(=O)O[C@H]1C[C@@H]2CC[C@@H]3[C@H](CC[C@@]4(C)[C@H]3C[C@H]([N+]3(C)CCCCC3)[C@@H]4OC(C)=O)[C@@]2(C)C[C@@H]1N1CCCCC1 [Vecuronium Bromide]", "relative cell viability": 118}
{"COMPOUND": "CCN(CC)C(=O)/C(C#N)=C/c1cc(O)c(O)c([N+](=O)[O-])c1", "relative cell viability": 105}
{"COMPOUND": "Nc1[nH]cnc2ncnc1-2 [Adenine sulfate]", "relative cell viability": 101}
{"COMPOUND": "CN1CCN(C2=Nc3cc(Cl)ccc3Nc3ccccc32)CC1", "relative cell viability": 104}
{"COMPOUND": "CC(=O)Oc1ccccc1C(=O)O", "relative cell viability": 101}
{"COMPOUND": "COc1ccc([C@@H]2Sc3ccccc3N(CCN(C)C)C(=O)[C@@H]2OC(C)=O)cc1 [Diltiazem HCl]", "relative cell viability": 105}
{"COMPOUND": "Nc1ccn([C@@H]2O[C@H](CO)[C@@H](O)C2(F)F)c(=O)n1 [Gemcitabine HCl]", "relative cell viability": 3.99}
{"COMPOUND": "CCC[C@H](N[C@@H](C)C(=O)N1[C@H](C(=O)O)C[C@@H]2CCCC[C@@H]21)C(=O)OCC", "relative cell viability": 81}
{"COMPOUND": "Cn1ccnc1S", "relative cell viability": 99.9}
{"COMPOUND": "OC(CCN1CCCC1)(c1ccccc1)C1CCCCC1 (centres undefined) [Procyclidine HCl]", "relative cell viability": 89.9}
{"COMPOUND": "O=C(O)/C=C/c1ccc(Cn2ccnc2)cc1 [Ozagrel]", "relative cell viability": 97.4}
{"COMPOUND": "CC(=O)OCC(=O)[C@@]1(O)CC[C@H]2[C@@H]3CCC4=CC(=O)CC[C@]4(C)[C@H]3C(=O)C[C@@]21C [Cortisone acetate]", "relative cell viability": 98.2}
{"COMPOUND": "CC=CC1=C(C(=O)O)N2C(=O)[C@@H](NC(=O)[C@H](N)c3ccc(O)cc3)[C@H]2SC1 [Cefprozil hydrate]", "relative cell viability": 104}
{"COMPOUND": "CN(C)CCN(Cc1cccs1)c1ccccn1 [Methapyrilene HCl]", "relative cell viability": 104}
{"COMPOUND": "CC(=O)OCC[N+](C)(C)C [Acetylcholine chloride]", "relative cell viability": 99.1}
{"COMPOUND": "CCCN(CCC)S(=O)(=O)c1ccc(C(=O)O)cc1", "relative cell viability": 109}
{"COMPOUND": "CCCSc1nc(N[C@@H]2C[C@H]2c2ccc(F)c(F)c2)c2nnn([C@@H]3C[C@H](OCCO)[C@@H](O)[C@H]3O)c2n1", "relative cell viability": 115}
{"COMPOUND": "CCCCCCCCCCC[C@@H](C[C@@H]1OC(=O)[C@H]1CCCCCC)OC(=O)[C@H](CC(C)C)NC=O", "relative cell viability": 115}
{"COMPOUND": "OCCOCCN1CCN(C2=Nc3ccccc3Sc3ccccc32)CC1 [Quetiapine fumarate]", "relative cell viability": 104}
{"COMPOUND": "CC(C)c1c(C(=O)Nc2ccccc2)c(-c2ccccc2)c(-c2ccc(F)cc2)n1CC[C@@H](O)C[C@@H](O)CC(=O)O", "relative cell viability": 95.8}
{"COMPOUND": "CCN(CC)CCOc1ccc(C(=C(Cl)c2ccccc2)c2ccccc2)cc1 [Clomifene citrate]", "relative cell viability": 104}
{"COMPOUND": "OC(CCN1CCCCC1)(c1ccccc1)C1CC2C=CC1C2 (centres undefined) [Biperiden HCl]", "relative cell viability": 104}
{"COMPOUND": "CC1CC(OC(=O)C(O)c2ccccc2)CC(C)(C)C1 (centres undefined) [Cyclandelate]", "relative cell viability": 106}
{"COMPOUND": "CC(O)(P(=O)(O)O)P(=O)(O)O [Etidronate]", "relative cell viability": 96.9}
{"COMPOUND": "CCN1CCCC1CNC(=O)c1cc(S(=O)(=O)CC)c(N)cc1OC (centres undefined) [Amisulpride]", "relative cell viability": 104}
